# Test system: SNB-19 CNS
# measurement.protocol: NCI-60 one-dose screen, 48 h (100 = growth as untreated, 0 = no growth, -100 = all killed)
# protocol.conditions: 10 µM
This is part of a sample that, as a whole, favours compounds with a hit. Of some 83,000 tested, about 20% had one in any assay. Activity calls are given as the source filed them. Rule for the calls: active = growth percent below 10; inactive = the rest.
assay.endpoint: growth

{"compound": "C=CCNC(=S)NN", "assay.target": "SNB-19 CNS", "test.result": "94.4% (inactive)"}
{"compound": "COc1ccc(C2C=C(c3ccc(OC)c(OC)c3)N=C3SC=CN32)c(Br)c1 (stereo unspecified)", "assay.target": "SNB-19 CNS", "test.result": "73% (inactive)"}
{"compound": "COc1ccc(-c2nnc(SC/C(=N\\O)c3ccccc3)o2)cc1", "assay.target": "SNB-19 CNS", "test.result": "99.7% (inactive)"}
{"compound": "COc1ccc(-c2cc(/C=C3\\C(=O)Nc4cc(Cl)ccc43)[nH]n2)cc1OC", "assay.target": "SNB-19 CNS", "test.result": "87% (inactive)"}
{"compound": "Cc1ccc(NC(=O)/C=N/O)cc1C", "assay.target": "SNB-19 CNS", "test.result": "102% (inactive)"}
{"compound": "Cc1nc2cc(-n3c(-c4ccc(F)cc4)nc4ccccc4c3=O)ccc2n1Cc1ccccc1", "assay.target": "SNB-19 CNS", "test.result": "37.9% (inactive)"}
{"compound": "COc1cc(-c2cc(/C=C/C(C)=O)[nH]n2)cc(OC)c1OC", "assay.target": "SNB-19 CNS", "test.result": "69.1% (inactive)"}
{"compound": "CC(C)C[C@H](NC(=O)Cn1ccc(Nc2ccccc2)cc1=O)B(O)O", "assay.target": "SNB-19 CNS", "test.result": "68% (inactive)"}
{"compound": "Cc1ccc(S(=O)(=O)Nc2cccc3[nH]c(C(F)(F)F)nc23)cc1", "assay.target": "SNB-19 CNS", "test.result": "39.2% (inactive)"}
{"compound": "COc1ccc(C2=NNC(c3sc(Cl)nc3Cl)C2)cc1 (stereo unspecified)", "assay.target": "SNB-19 CNS", "test.result": "95.6% (inactive)"}
{"compound": "Cc1c(C(=O)N[C@H](CO)Cc2ccccc2)[nH]c2ccc(Cl)cc2c1=O", "assay.target": "SNB-19 CNS", "test.result": "106% (inactive)"}
